APOE RNA (% UTC) listing for selected substances.
System: human APOE RNA
experimentSummary: Dose-dependent reduction of human APOE RNA in HepG2 cells, electroporation, 20,000 cells per well, average of GAPDH- and PPIA-normalized results (Example 4, Table 12)
Type: cell-based
assayConditions: 3,200 nM, HepG2, 20,000 cells per well
Description: HepG2 cells plated at a density of 20,000 cells per well were treated by electroporation with various concentrations of modified oligonucleotide as specified in the tables below. […] APOE RNA levels were measured using the human primer probe set RTS3073 (described herein above). […] The half maximal inhibitory concentration (IC50) of each modified oligonucleotide was calculated in GraphPad Prism 10 (GraphPad Software, San Diego, CA) and is also presented in the table below.
Strand notation (5' to 3'): a small letter for the sugar, then the base; units joined by * are phosphorothioate-linked, units joined directly phosphodiester-linked; [ ] holds rarer units or linkages, { } end groups; capitals alone tell only the bases. [ms] = mesyl phosphoramidate linkage; k = constrained ethyl (cEt); [5mC] = 5-methylcytosine; d = 2'-deoxy (DNA)
Give the quantity in % UTC, number only.

Ask: Would you kindly share the measured APOE RNA (% UTC) for ^mCksTksTksGdzGdzTdzGdzAdzAdzTds^mCdsTdsTdsTdsAdsTdsTksAksAdzAk (antisense k[5mC]*kT*kT*dG[ms]dG[ms]dT[ms]dG[ms]dA[ms]dA[ms]dT*d[5mC]*dT*dT*dT*dA*dT*kT*kA*dA[ms]kA) [Compound No. 1785602] ?
Reply: 8

Ask: Field request: APOE RNA (% UTC) | item: 1746809 (k[5mC]*dT[ms]kT*dG[ms]kG*dT[ms]dG[ms]dA[ms]dA[ms]dT*d[5mC]*dT*dT*dT*dA[ms]dT*dT[ms]kA*kA*kA; antisense) [Compound 1746809]
Reply: 11

# next substance below
Ask: Suppose we examine the substance 1785599: modified oligonucleotide complementary to human APOE RNA (k[5mC]*kT*kT*dG[ms]dG[ms]dT[ms]dG[ms]dA[ms]dA[ms]dT[ms]d[5mC]*dT*dT*dT*dA*dT*kT*kA*dA[ms]kA; antisense) [compound 1785599] ; what APOE RNA (% UTC) value has been reported?
Reply: 18

Just for reference, patent US20250353873A1 is where these values come from.
